# measurement_description: Solubility
# Assay type: physicochemical
# recorded_conditions: dimethylsulfoxide

molecule: N[C@H]1CON([C@]2(C(=O)O)CCC(=O)O2)C1=O
Solubility in dimethylsulfoxide: Sparingly soluble
--
molecule: N[C@H]1CON(C2(C(=O)O)CCC(=O)O2)C1=O (stereo partly shown)
Solubility in dimethylsulfoxide: Sparingly soluble
--
molecule: N[C@H]1CON([C@@]2(C(=O)O)CCC(=O)O2)C1=O
Solubility in dimethylsulfoxide: Sparingly soluble
